Molecular target: BRAF V600E (Homo sapiens, UniProt P15056, V600E)
Construct: endogenous C-terminal HiBiT fusion tag on BRAF V600E allele; endogenous in cells; host or cells: A375 clone 1F10 (CRISPR-Cas9 knock-in of the HiBiT tag; parental A375 from ATCC)
Sequence (P15056 whole entry V600E, the tested form may be a part): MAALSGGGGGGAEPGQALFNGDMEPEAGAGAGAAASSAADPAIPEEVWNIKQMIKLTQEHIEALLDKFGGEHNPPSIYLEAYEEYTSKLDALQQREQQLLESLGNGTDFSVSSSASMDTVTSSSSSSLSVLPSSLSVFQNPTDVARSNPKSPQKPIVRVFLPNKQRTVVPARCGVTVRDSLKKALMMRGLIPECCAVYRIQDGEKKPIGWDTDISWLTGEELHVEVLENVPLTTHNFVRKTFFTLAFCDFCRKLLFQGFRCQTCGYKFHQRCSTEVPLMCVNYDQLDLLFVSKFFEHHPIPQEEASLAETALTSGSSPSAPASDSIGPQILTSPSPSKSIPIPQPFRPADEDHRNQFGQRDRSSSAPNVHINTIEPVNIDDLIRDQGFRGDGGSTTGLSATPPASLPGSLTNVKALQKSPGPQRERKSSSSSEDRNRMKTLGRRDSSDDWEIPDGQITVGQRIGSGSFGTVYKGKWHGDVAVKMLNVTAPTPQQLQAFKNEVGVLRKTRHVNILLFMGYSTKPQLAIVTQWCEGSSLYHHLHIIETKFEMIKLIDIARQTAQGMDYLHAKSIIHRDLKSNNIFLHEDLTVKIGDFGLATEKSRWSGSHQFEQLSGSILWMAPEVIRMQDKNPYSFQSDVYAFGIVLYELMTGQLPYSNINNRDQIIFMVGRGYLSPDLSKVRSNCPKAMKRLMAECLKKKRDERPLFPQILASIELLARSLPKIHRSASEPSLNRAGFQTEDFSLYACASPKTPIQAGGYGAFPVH
Assay: BRAF HiBiT degradation assay, C-terminal HiBiT-tagged BRAF V600E A375 cells (clone 1F10), Nano-Glo HiBiT Lytic assay
Assay type: cell-based
Conditions: A375 (BRAF V600E); DC50 at 50%: fitted conc. at Y=50
assay.metric: DC50

Previously resolved entries follow.
- molecule: "CCCS(=O)(=O)Nc1cccc(-c2nc(C(C)(C)C)sc2-c2ccnc(Nc3ccc(N4CCN(C(=O)CC5CCN(c6ccc(C7CCC(=O)NC7=O)cn6)CC5)CC4)c(F)c3)n2)c1F (racemic) [Compound 48]"
  system.tested: "BRAF V600E (Homo sapiens, UniProt P15056, V600E)"
  DC50: "< 10 nM"
- molecule: "CCCS(=O)(=O)Nc1cccc(-c2cn(-c3ccc(C(=O)N4CCN(C(=O)C5CCN(c6ccc(C7CCC(=O)NC7=O)cc6)CC5)CC4)cc3)nc2-c2ccncc2)c1F (racemic) [Compound 14]"
  system.tested: "BRAF V600E (Homo sapiens, UniProt P15056, V600E)"
  DC50: "50 to 500 nM"
- molecule: "CCCS(=O)(=O)Nc1cccc(-c2nc(C(C)(C)C)sc2-c2ccnc(Nc3ccc(C4CCN(C(=O)C5CCN(c6cccc7c6n(C)c(=O)n7C6CCC(=O)NC6=O)CC5)CC4)cc3)n2)c1F (racemic) [Compound 161]"
  system.tested: "BRAF V600E (Homo sapiens, UniProt P15056, V600E)"
  DC50: "10 to 50 nM"
- molecule: "CCCS(=O)(=O)Nc1cccc(-c2nc(C(C)(C)C)sc2-c2ccnc(Nc3cnn(CC4CCN(C(=O)[C@H]5CC[C@H](Oc6ccc(C7CCC(=O)NC7=O)cc6)CC5)CC4)c3)n2)c1F (mixture of isomers) [Compound 118]"
  system.tested: "BRAF V600E (Homo sapiens, UniProt P15056, V600E)"
  DC50: "< 10 nM"

Query: Report DC50 under test system BRAF V600E (Homo sapiens, UniProt P15056, V600E) for CCCS(=O)(=O)Nc1cccc(-c2nc(C(C)(C)C)sc2-c2ccnc(NC3CC4(C3)CN(C(=O)CC3CCN(C5CCN(c6ccc7c(c6)C(=O)N(C6CCC(=O)NC6=O)C7=O)CC5)CC3)C4)n2)c1F (racemic) [Compound 157] .
Result: 50 to 500 nM

---

Target: BRAF G466V (Homo sapiens, UniProt P15056, G466V)
Construct: Horizon Discovery (HCT-116 BRAF−/− cells); host or cells: HCT-116 BRAF−/− cells, clone 8, lentiviral transduction
Sequence (P15056 whole entry G466V): as the sequence (P15056 whole entry V600E, the tested form may be a part) above, with G466V, E600V counted along it
Test: BRAF HiBiT degradation assay, C-terminal HiBiT-tagged BRAF G466V overexpressed in HCT-116 BRAF−/− cells (clone 8), Nano-Glo HiBiT Lytic assay
Assay type: cell-based
Settings: BRAF G466V (Class 3), HCT-116 BRAF−/− cells; observed Dmax relative to DMSO control
assay.metric: Dmax

- compound: "O=C1CC[C@H](c2ccc(N3CCC(CN4CCN(c5ccc(-n6cc(-c7cc(Cl)cc(NS(=O)(=O)N8CCCC8)c7F)c(-c7ccncc7)n6)cc5)CC4)CC3)cc2F)C(=O)N1 [Compound 344]"
  system.tested: "BRAF G466V (Homo sapiens, UniProt P15056, G466V)"
  recorded.result: "> 70%"
- compound: "O=C1CCC(c2ccc(N3CCC4(CC3)CC(CN3CCN(c5ccc(-n6cc(-c7cc(Cl)cc(NS(=O)(=O)N8CC[C@@H](F)C8)c7F)c(-c7ccncc7)n6)nc5)CC3)C4)cc2)C(=O)N1 (mixture of isomers) [Compound 298]"
  system.tested: "BRAF G466V (Homo sapiens, UniProt P15056, G466V)"
  recorded.result: "< 30%"

Now consider a different compound.
Query: Query Dmax for O=C1CCN(c2ccc(N3CCC(CN4CCN(c5ccc(-n6cc(-c7cc(C(F)F)cc(NS(=O)(=O)N8CCCC8)c7F)c(-c7ccncc7)n6)c(F)c5)CC4)CC3)cc2)C(=O)N1 [Compound 356]
Result: 30 to 70%

---

Target: BRAF G469A (Homo sapiens, UniProt P15056, G469A)
Construct: Horizon Discovery (HCT-116 BRAF−/− cells); host or cells: HCT-116 BRAF−/− cells, clone 34, lentiviral transduction
Sequence (P15056 whole entry G469A): as the sequence (P15056 whole entry V600E, the tested form may be a part) above, with G469A, E600V counted along it
Assay: BRAF HiBiT degradation assay, C-terminal HiBiT-tagged BRAF G469A overexpressed in HCT-116 BRAF−/− cells (clone 34), Nano-Glo HiBiT Lytic assay
Assay type: cell-based
Settings: Class 2; BRAF G469A; DC50 at 50%: fitted conc. at Y=50
assay.metric: DC50

- compound: "CCN(C)S(=O)(=O)Nc1cccc(-c2nc(C(C)(C)C)sc2-c2ccnc(Nc3ccc(N4CCN(C(=O)C5CCN(c6ccc(C7CCC(=O)NC7=O)cc6)CC5)CC4)cn3)n2)c1F (racemic) [Compound 36]"
  recorded.result: "0.01 to 0.05 µM"
- compound: "CCCS(=O)(=O)Nc1cccc(-c2nc(C(C)(C)C)sc2-c2ccnc(Nc3cnn(C4CCN(CC5CCN(c6ccc(C(=O)N[C@@H]7CCC(=O)NC7=O)nc6)CC5)CC4)c3)n2)c1F [Compound 67]"
  recorded.result: "> 0.5 µM"
- compound: "CCCS(=O)(=O)Nc1cccc(-c2nc(-c3ccc(N4CCN(CC5CCN(c6ccc([C@H]7CCC(=O)NC7=O)cc6)CC5)CC4)cc3)sc2-c2ccnc(N)n2)c1F [Compound 191]"
  recorded.result: "> 0.5 µM"

Query: Answer with the recorded DC50 for the compound listed here: CCCS(=O)(=O)Nc1cccc(-c2nc(C(C)(C)C)sc2-c2ccnc(Nc3cnn(CC4CCN(C(=O)CN5CCC(c6ccc(NC7CCC(=O)NC7=O)cc6)CC5)CC4)c3)n2)c1F (racemic) [Compound 116]
Result: > 0.5 µM

Query: Provide DC50 value for the following compound: CCCS(=O)(=O)Nc1cccc(-c2nc(C(C)(C)C)sc2-c2ccnc(Nc3cccc(OC4CCN(CC[C@@H]5CCN(c6ccc(C7CCC(=O)NC7=O)cn6)C5)CC4)c3)n2)c1F (mixture of isomers) [Compound 70]
Result: > 0.5 µM

---

Here the recorded DC50 is given for each entry.
Target: BRAF V600E (Homo sapiens, UniProt P15056, V600E)
Construct: endogenous C-terminal HiBiT fusion tag on BRAF V600E allele; endogenous in cells; host or cells: A375 clone 1F10 (CRISPR-Cas9 knock-in of the HiBiT tag; parental A375 from ATCC)
Experiment: BRAF HiBiT degradation assay, C-terminal HiBiT-tagged BRAF V600E A375 cells (clone 1F10), Nano-Glo HiBiT Lytic assay
Format: cell-based
Conditions: A375 (BRAF V600E); DC50 at 50%: fitted conc. at Y=50

- molecule: "CCCS(=O)(=O)Nc1cccc(-c2nc(C(C)(C)C)sc2-c2ccnc(Nc3ccc(C4CCN(CC5CCN(c6ccc([C@H]7CCC(=O)NC7=O)cc6)CC5)CC4)cc3)n2)c1F"
  system.tested: "BRAF V600E (Homo sapiens, UniProt P15056, V600E)"
  DC50: "10 to 50 nM"
- molecule: "CCCS(=O)(=O)Nc1cccc(-c2nc(C(C)(C)C)sc2-c2ccnc(Nc3cnn(C4CCN(CC[C@H]5CCN(c6ccc(C7CCC(=O)NC7=O)cn6)C5)CC4)c3)n2)c1F (mixture of isomers)"
  system.tested: "BRAF V600E (Homo sapiens, UniProt P15056, V600E)"
  DC50: "10 to 50 nM"
- molecule: "CCCS(=O)(=O)Nc1cccc(-c2nc(C3CCC4(CC3)CN(C(=O)CN3CCN(c5ccc6c(c5)C(=O)N(C5CCC(=O)NC5=O)C6=O)CC3)C4)sc2-c2ccnc(N)n2)c1F (racemic)"
  system.tested: "BRAF V600E (Homo sapiens, UniProt P15056, V600E)"
  DC50: "< 10 nM"
- molecule: "CCCS(=O)(=O)Nc1cccc(-c2cn(-c3ccc(N4CCN(CC5CCN(c6ccc(C7CCC(=O)NC7=O)cn6)CC5)CC4)cc3)nc2-c2ccncc2)c1F (racemic)"
  system.tested: "BRAF V600E (Homo sapiens, UniProt P15056, V600E)"
  DC50: "10 to 50 nM"
- molecule: "CCCS(=O)(=O)Nc1cccc(-c2nc(C(C)(C)C)sc2-c2ccnc(NC3CC4(CCN(CC5CCN(c6ccc7c(=O)n(C8CCC(=O)NC8=O)ccc7c6)CC5)CC4)C3)n2)c1F (racemic)"
  system.tested: "BRAF V600E (Homo sapiens, UniProt P15056, V600E)"
  DC50: "50 to 500 nM"
- molecule: "CCCS(=O)(=O)Nc1cccc(-c2nc(C)sc2-c2ccnc(Nc3ccc(N4CCN(CC5(F)CCN(c6ccc(C7CCC(=O)NC7=O)cc6)CC5)CC4)cc3)n2)c1F (racemic)"
  system.tested: "BRAF V600E (Homo sapiens, UniProt P15056, V600E)"
  DC50: "10 to 50 nM"
- molecule: "CCCS(=O)(=O)Nc1cccc(-c2nc(C3(C)CCN(C(=O)C4CCN(CC5CCN(c6ccc(C7CCC(=O)NC7=O)cn6)CC5)CC4)CC3)sc2-c2ccnc(N)n2)c1F (racemic)"
  system.tested: "BRAF V600E (Homo sapiens, UniProt P15056, V600E)"
  DC50: "50 to 500 nM"
- molecule: "CCCS(=O)(=O)Nc1cccc(-c2nc(-c3ccc(N4CCN(CC5CCN(c6ccc([C@@H]7CCC(=O)NC7=O)cc6)CC5)CC4)cc3)sc2-c2ccnc(N)n2)c1F"
  system.tested: "BRAF V600E (Homo sapiens, UniProt P15056, V600E)"
  DC50: "10 to 50 nM"
- molecule: "CCCS(=O)(=O)Nc1cccc(-c2nc(C)sc2-c2ccnc(Nc3ccc(N4CCN(CC5CCN(c6ccc([C@H]7CCC(=O)NC7=O)cc6)CC5)CC4)cn3)n2)c1F"
  system.tested: "BRAF V600E (Homo sapiens, UniProt P15056, V600E)"
  DC50: "10 to 50 nM"

Query: Report DC50 for CCCS(=O)(=O)Nc1cccc(-c2nc(C)sc2-c2ccnc(Nc3ccc(N4CCN(CC5(C)CCN(c6ccc(C7CCC(=O)NC7=O)cn6)CC5)CC4)cc3)n2)c1F (racemic)
Result: < 10 nM
